# Assay Procedure: Oral bioavailability in rat at 5 mg/kg administered as crystalline suspension
# Assay type: ADME, organism-based
# Cond: in vivo
Measured Parameter: bioavailability (%)
Numbers only, in %.

Query :: Endpoint output: bioavailability of COc1ncc(OC)c2c(C(=O)C(=O)N3CCN(C(=O)c4ccccc4)CC3)c[nH]c12 . Value?
Result :: 55

----------
# System Under Test: Cytochrome P450 2C9 (Homo sapiens)
# Sequence (P11712 whole entry): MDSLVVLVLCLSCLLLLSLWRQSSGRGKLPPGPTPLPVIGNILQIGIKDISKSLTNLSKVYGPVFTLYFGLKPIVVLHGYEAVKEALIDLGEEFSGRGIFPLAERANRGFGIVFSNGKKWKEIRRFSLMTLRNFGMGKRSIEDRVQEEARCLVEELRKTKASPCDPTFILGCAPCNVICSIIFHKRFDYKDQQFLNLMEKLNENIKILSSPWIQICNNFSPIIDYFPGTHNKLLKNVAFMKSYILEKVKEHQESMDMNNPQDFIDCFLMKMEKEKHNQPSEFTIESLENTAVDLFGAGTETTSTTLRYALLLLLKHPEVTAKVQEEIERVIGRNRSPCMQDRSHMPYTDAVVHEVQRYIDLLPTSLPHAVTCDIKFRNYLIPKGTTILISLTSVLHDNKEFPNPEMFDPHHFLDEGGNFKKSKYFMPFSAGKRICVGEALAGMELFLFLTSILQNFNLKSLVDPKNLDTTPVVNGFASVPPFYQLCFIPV
# Assay Procedure: Inhibition of recombinant CYP2C9
Measured Parameter: IC50 (µM)
Numbers only, in µM.

Some molecules with known IC50 results, for comparison:
Query :: Endpoint output: IC50 of C[C@@H]1CN(C(=O)c2ccccc2)CCN1C(=O)C(=O)c1c[nH]c2cnccc12 . Value?
Result :: 17

Query :: Note, next up: C[C@@H]1CN(C(=O)c2ccccc2)CCN1C(=O)C(=O)c1c[nH]c2ncccc12
Result :: 7.9

// for each molecule in input: emit IC50
1. C[C@@H]1CN(C(=O)c2ccccc2)CCN1C(=O)C(=O)c1c[nH]c2ccccc12
2. COc1ncc(OC)c2c(C(=O)C(=O)N3CCN(C(=O)c4ccccc4)CC3)c[nH]c12

Result ::
1. 5.2
2. 30

----------
# Assay Procedure: Cytotoxicity against human hepatic cancer cells
# Type: cell-based, Cancer cell lines
Measured Parameter: CC50

Query :: Endpoint output: CC50 of COc1ncc(OC)c2c(C(=O)C(=O)N3CCN(C(=O)c4ccccc4)CC3)c[nH]c12 . Value?
Result :: ≥ 120 µM

----------
Please respond with reported logD for every item in the list.
# Assay Procedure: Lipophilicity, log D at pH 6.5
# Format: physicochemical
# Cond: buffer
Give bare numbers.

Some compounds with known logD results, for comparison:
Query :: Endpoint output: logD of C[C@@H]1CN(C(=O)c2ccccc2)CCN1C(=O)C(=O)c1c[nH]c2ccncc12 . Value?
Result :: 1.2

Query :: Note, next up: COc1ncc(OC)c2c(C(=O)C(=O)N3CCN(C(=O)c4ccccc4)CC3)c[nH]c12
Result :: 1.5

Query :: Note, next up: C[C@@H]1CN(C(=O)c2ccccc2)CCN1C(=O)C(=O)c1c[nH]c2ccccc12
Result :: 1.9

Query :: Note, next up: COc1ccnc2[nH]cc(C(=O)C(=O)N3CCN(C(=O)c4ccccc4)C[C@H]3C)c12
Result :: 1.6

Query :: Note, next up: C[C@@H]1CN(C(=O)c2ccccc2)CCN1C(=O)C(=O)c1c[nH]c2ncccc12
Result :: 1.8

Query :: Note, next up: C[C@@H]1CN(C(=O)c2ccccc2)CCN1C(=O)C(=O)c1c[nH]c2cccnc12
Result :: 0.9

Turning to the following compound.
Query :: Endpoint output: logD of C[C@@H]1CN(C(=O)c2ccccc2)CCN1C(=O)C(=O)c1c[nH]c2cnccc12 . Value?
Result :: 1.5

----------
# Assay Procedure: Cytotoxicity against human T cell
# Format: cell-based
# Cond: T cells
Measured Parameter: CC50

Query :: Endpoint output: CC50 of COc1ncc(OC)c2c(C(=O)C(=O)N3CCN(C(=O)c4ccccc4)CC3)c[nH]c12 . Value?
Result :: ≥ 120 µM

----------
# Assay Procedure: Metabolic stability in human liver microsomes assessed as half life
# Format: ADME, Microsome
Please respond with reported half-life for every item in the list.

Some molecules with known half-life results, for comparison:
Query :: Endpoint output: half-life of COc1ncc(OC)c2c(C(=O)C(=O)N3CCN(C(=O)c4ccccc4)CC3)c[nH]c12 . Value?
Result :: > 100 min

Query :: Note, next up: C[C@@H]1CN(C(=O)c2ccccc2)CCN1C(=O)C(=O)c1c[nH]c2ccccc12
Result :: 16.9 min

Query :: Note, next up: C[C@@H]1CN(C(=O)c2ccccc2)CCN1C(=O)C(=O)c1c[nH]c2ncccc12
Result :: 49.5 min

Query :: Note, next up: C[C@@H]1CN(C(=O)c2ccccc2)CCN1C(=O)C(=O)c1c[nH]c2ccncc12
Result :: > 100 min

Query :: Note, next up: C[C@@H]1CN(C(=O)c2ccccc2)CCN1C(=O)C(=O)c1c[nH]c2cnccc12
Result :: 38.5 min

// for each molecule in input: emit half-life
1. C[C@@H]1CN(C(=O)c2ccccc2)CCN1C(=O)C(=O)c1c[nH]c2cccnc12
2. COc1ccnc2[nH]cc(C(=O)C(=O)N3CCN(C(=O)c4ccccc4)C[C@H]3C)c12

Result ::
1: > 100 min; 2: 37 min

----------
# Assay Procedure: Aqueous solubility of crystalline form of compound in buffer solution of pH 1.5 at 25 degC
# Format: physicochemical
Measured Parameter: solubility

Query :: Endpoint output: solubility of COc1ncc(OC)c2c(C(=O)C(=O)N3CCN(C(=O)c4ccccc4)CC3)c[nH]c12 . Value?
Result :: 900 µg/mL

----------
# Assay Procedure: Cytotoxicity against human neuronal tumor cells
# Assay type: cell-based
Measured Parameter: CC50

Query :: Endpoint output: CC50 of COc1ncc(OC)c2c(C(=O)C(=O)N3CCN(C(=O)c4ccccc4)CC3)c[nH]c12 . Value?
Result :: ≥ 120 µM

----------
# System Under Test: Cytochrome P450 2C19 (Homo sapiens)
# Sequence (P33261 whole entry): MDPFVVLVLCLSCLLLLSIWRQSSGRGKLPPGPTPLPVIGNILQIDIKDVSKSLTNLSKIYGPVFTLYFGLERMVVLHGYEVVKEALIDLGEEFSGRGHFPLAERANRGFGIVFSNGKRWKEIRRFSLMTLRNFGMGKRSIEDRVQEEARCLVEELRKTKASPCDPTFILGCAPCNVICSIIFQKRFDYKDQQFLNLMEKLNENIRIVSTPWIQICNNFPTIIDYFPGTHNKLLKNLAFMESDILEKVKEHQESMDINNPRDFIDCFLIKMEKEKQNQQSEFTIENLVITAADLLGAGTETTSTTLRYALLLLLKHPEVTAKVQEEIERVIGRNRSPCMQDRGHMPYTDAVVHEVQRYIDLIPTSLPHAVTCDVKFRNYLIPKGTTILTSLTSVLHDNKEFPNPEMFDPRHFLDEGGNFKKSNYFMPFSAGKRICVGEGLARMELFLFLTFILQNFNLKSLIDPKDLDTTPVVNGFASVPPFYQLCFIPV
# Assay Procedure: Inhibition of recombinant CYP2C19
Measured Parameter: log10 IC50 (log10 of the value in µM)
Annotation: log10 of IC50, µM basis.

// for each compound in input: emit log10 IC50
1. C[C@@H]1CN(C(=O)c2ccccc2)CCN1C(=O)C(=O)c1c[nH]c2ncccc12
2. C[C@@H]1CN(C(=O)c2ccccc2)CCN1C(=O)C(=O)c1c[nH]c2cnccc12
3. C[C@@H]1CN(C(=O)c2ccccc2)CCN1C(=O)C(=O)c1c[nH]c2ccccc12

Result ::
[1.00, 0.86, 0.41]

// for each compound in input: emit log10 IC50
1. C[C@@H]1CN(C(=O)c2ccccc2)CCN1C(=O)C(=O)c1c[nH]c2ccncc12
2. C[C@@H]1CN(C(=O)c2ccccc2)CCN1C(=O)C(=O)c1c[nH]c2cccnc12

Result ::
[1.23, 1.56]

----------
# Assay Procedure: Permeability across human Caco-2 cell membrane at pH 6.5
# Type: ADME, cell-based
# Cond: Caco-2, pH 6.5, read-out: permeability
Strictly below 8 ×10⁻⁶ cm/s in Papp: criterion met. Otherwise: criterion not met.

Query :: Please determine if C[C@@H]1CN(C(=O)c2ccccc2)CCN1C(=O)C(=O)c1c[nH]c2ccncc12 is below 8 ×10⁻⁶ cm/s in terms of Papp.
Result :: criterion met

Query :: Note, next up: COc1ncc(OC)c2c(C(=O)C(=O)N3CCN(C(=O)c4ccccc4)CC3)c[nH]c12
Result :: criterion not met

Query :: Note, next up: COc1ccnc2[nH]cc(C(=O)C(=O)N3CCN(C(=O)c4ccccc4)C[C@H]3C)c12
Result :: criterion met

Query :: Note, next up: C[C@@H]1CN(C(=O)c2ccccc2)CCN1C(=O)C(=O)c1c[nH]c2cnccc12
Result :: criterion met

Query :: Note, next up: C[C@@H]1CN(C(=O)c2ccccc2)CCN1C(=O)C(=O)c1c[nH]c2ccccc12
Result :: criterion not met

Continuing:
Query :: Please determine if C[C@@H]1CN(C(=O)c2ccccc2)CCN1C(=O)C(=O)c1c[nH]c2cccnc12 is below 8 ×10⁻⁶ cm/s in terms of Papp.
Result :: criterion met

Query :: Note, next up: C[C@@H]1CN(C(=O)c2ccccc2)CCN1C(=O)C(=O)c1c[nH]c2ncccc12
Result :: criterion not met

----------
# Assay Procedure: Aqueous solubility of crystalline form of compound in buffer solution of pH 6.5 at 25 degC
# Assay type: physicochemical
Please respond with reported log10(solubility) for every item in the list.
Annotation: log10 of solubility, µg/mL basis.

Some compounds with known log10(solubility) results, for comparison:
Query :: Endpoint output: log10(solubility) of C[C@@H]1CN(C(=O)c2ccccc2)CCN1C(=O)C(=O)c1c[nH]c2cccnc12 . Value?
Result :: 2.97

Query :: Note, next up: COc1ncc(OC)c2c(C(=O)C(=O)N3CCN(C(=O)c4ccccc4)CC3)c[nH]c12
Result :: 1.60

Query :: Note, next up: C[C@@H]1CN(C(=O)c2ccccc2)CCN1C(=O)C(=O)c1c[nH]c2cnccc12
Result :: 2.69

// for each compound in input: emit log10(solubility)
1. C[C@@H]1CN(C(=O)c2ccccc2)CCN1C(=O)C(=O)c1c[nH]c2ccccc12
2. C[C@@H]1CN(C(=O)c2ccccc2)CCN1C(=O)C(=O)c1c[nH]c2ncccc12
3. C[C@@H]1CN(C(=O)c2ccccc2)CCN1C(=O)C(=O)c1c[nH]c2ccncc12
4. COc1ccnc2[nH]cc(C(=O)C(=O)N3CCN(C(=O)c4ccccc4)C[C@H]3C)c12

Result ::
1.20
2.97
2.62
2.30

----------
# Assay Procedure: Aqueous solubility of crystalline form of compound in buffer solution of pH 11 at 25 degC
# Format: physicochemical
Measured Parameter: solubility (µg/mL)
Answers are plain numbers, in µg/mL.

Query :: Endpoint output: solubility of COc1ccnc2[nH]cc(C(=O)C(=O)N3CCN(C(=O)c4ccccc4)C[C@H]3C)c12 . Value?
Result :: 3300
